These measurements were taken from patent US7910750B2.

- Test system: BALB/c mouse spleen cells
- measurement_description: Lymphocytotoxicity test (MTT)
- Format: cell-based
- condition_description: BALB/c mouse spleen cells, 48 hours, mean ± standard error, read-out: cytotoxicity CC50
value_kind: CC50 (µM)
Entry rule: numbers only, all in µM.

I am curious: what CC50 value has been reported for CC1CCC2C(C)C(Oc3cccc(OC(CC(=O)O)C(=O)O)c3)OC3OC4(C)CCC1C32OO4 (stereo not shown) ?
53.1

====

Listed here are compounds together with their documented CC50.
- Tested on: BALB/c mouse spleen cells
- measurement_description: Lymphocytotoxicity test (MTT)
- Format: cell-based
- condition_description: mouse spleen cells, 48 hours, read-out: Lymphocytotoxicity CC50
Entry rule: numbers only, all in µM.

Please provide the recorded CC50 for CCOC(=O)CNC(=O)c1ccc(OC2OC3OC4(C)CCC5C(C)CCC(C2C)C35OO4)cc1 (stereo not shown) [compound 5] , tested on BALB/c mouse spleen cells.
39

Please provide the recorded CC50 for COc1ccccc1OC(=O)C(C)Oc1cccc(OC2OC3OC4(C)CCC5C(C)CCC(C2C)C35OO4)c1 (stereo not shown) [compound 30] , tested on BALB/c mouse spleen cells.
8.23

Please provide the recorded CC50 for COC(=O)Cc1ccc(OC2OC3OC4(C)CCC5C(C)CCC(C2C)C35OO4)cc1 (stereo not shown) [compound 1] , tested on BALB/c mouse spleen cells.
8

Please provide the recorded CC50 for COC(=O)C(C)c1ccc(OC2OC3OC4(C)CCC5C(C)CCC(C2C)C35OO4)cc1 (stereo not shown) [compound 21] , tested on BALB/c mouse spleen cells.
7.8
